- method: Half life in iv dosed Sprague-Dawley rat
- Assay type: ADME, organism-based
- condition-details: in vivo
reported-endpoint: half-life (min)
Kindly provide the numeric value in min only, without the unit symbol.

Any idea what half-life was measured for COc1ccc(CNC(=O)c2cc(-c3cncc(Cl)c3)cnc2-c2ccccn2)nc1OC ?
18

---

- method: Clearance in iv dosed dog
- Format: ADME, organism-based, Canis lupus familiaris
- condition-details: in vivo
reported-endpoint: clearance (mL/min/kg)
Report the value in mL/min/kg with no unit label.

# lookup: clearance of Cc1ccc(-c2ncccn2)c(C(=O)N2C[C@H](COc3ccc(F)cn3)CC[C@H]2C)c1
5.8

---

- method: Apparent permeability of the compound
- Format: physicochemical
- condition-details: not told
reported-endpoint: Papp
Answer format: value, then unit.

Record request: Papp value, item Cc1ccc(-n2nccn2)c(C(=O)N2CCN(c3nc4cc(Cl)ccc4o3)CC[C@H]2C)c1
37 ×10⁻⁶ cm/s

---

- measured-target: Orexin/Hypocretin receptor type 1 (Homo sapiens)
- Sequence (O43613 whole entry): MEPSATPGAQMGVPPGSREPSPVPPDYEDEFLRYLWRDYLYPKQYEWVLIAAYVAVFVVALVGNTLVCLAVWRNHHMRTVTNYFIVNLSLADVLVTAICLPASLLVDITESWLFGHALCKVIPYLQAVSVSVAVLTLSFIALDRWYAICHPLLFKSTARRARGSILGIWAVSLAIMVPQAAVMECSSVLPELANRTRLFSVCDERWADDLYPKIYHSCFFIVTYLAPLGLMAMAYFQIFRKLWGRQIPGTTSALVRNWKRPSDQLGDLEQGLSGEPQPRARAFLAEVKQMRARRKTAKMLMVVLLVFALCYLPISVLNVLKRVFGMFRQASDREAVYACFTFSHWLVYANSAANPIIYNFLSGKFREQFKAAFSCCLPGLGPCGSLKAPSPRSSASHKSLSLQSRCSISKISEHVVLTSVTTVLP
- method: Antagonist activity at human OX1R expressed in CHO cells by FLIPR assay
- Type: cell-based
reported-endpoint: IC50 (nM)
Respond numerically; units are nM and should not be typed.

So what does the record say about IC50 for COc1ccc(CNC(=O)c2cc(-c3cncc(Cl)c3)cnc2-c2ccccn2)nc1OC ?
1790
